# EXPERIMENTAL_SYSTEM: HDAC1 (Homo sapiens)
# Sequence (Q13547 whole entry): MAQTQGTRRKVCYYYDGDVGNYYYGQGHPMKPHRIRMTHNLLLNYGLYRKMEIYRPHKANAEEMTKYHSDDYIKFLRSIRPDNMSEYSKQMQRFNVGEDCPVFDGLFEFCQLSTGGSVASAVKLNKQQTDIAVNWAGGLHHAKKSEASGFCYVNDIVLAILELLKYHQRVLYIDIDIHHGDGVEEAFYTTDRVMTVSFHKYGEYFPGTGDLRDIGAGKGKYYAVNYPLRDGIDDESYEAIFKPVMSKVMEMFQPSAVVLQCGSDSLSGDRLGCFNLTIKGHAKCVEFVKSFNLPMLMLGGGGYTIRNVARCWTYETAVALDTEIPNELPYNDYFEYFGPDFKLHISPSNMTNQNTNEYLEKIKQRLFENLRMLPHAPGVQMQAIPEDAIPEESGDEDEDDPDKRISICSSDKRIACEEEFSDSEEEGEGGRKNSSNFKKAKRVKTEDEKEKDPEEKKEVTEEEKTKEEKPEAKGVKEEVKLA
OBSERVATION_TYPE: Ki

I would be grateful if you could share the reported Ki for CCCNNC(=O)c1ccc(CNC(=O)/C=C/c2ccccc2)cc1 .
~40 nM
